- study.target: MMP-1 (Homo sapiens, UniProt P03956)
- Construct: made in house; host or cells: MMP-1-transfected HT-1080 cells (spent media)
- Sequence (P03956 100-469): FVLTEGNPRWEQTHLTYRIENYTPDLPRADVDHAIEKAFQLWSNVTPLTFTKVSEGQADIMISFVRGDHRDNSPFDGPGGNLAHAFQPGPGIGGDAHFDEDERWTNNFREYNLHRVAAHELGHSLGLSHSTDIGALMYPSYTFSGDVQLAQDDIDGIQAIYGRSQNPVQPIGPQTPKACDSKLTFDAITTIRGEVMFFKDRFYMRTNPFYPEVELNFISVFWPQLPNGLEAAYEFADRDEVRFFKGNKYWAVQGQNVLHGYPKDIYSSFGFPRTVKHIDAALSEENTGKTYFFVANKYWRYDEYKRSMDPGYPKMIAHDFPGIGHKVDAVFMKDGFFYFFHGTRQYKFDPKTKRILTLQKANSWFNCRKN
- protocol.details: In vitro MMP inhibition, Ki determination (fluorogenic substrate II)
- Type: biochemical
- assay.setup: value not in parenthesis; read-out: MMP-1 Ki
Listed next: entries and their corresponding Ki.

[
  {
    "molecule": "O=C(NO)C1(S(=O)(=O)N2CCN(c3ccc(OCC(F)(F)C(F)(F)F)cc3)CC2)CCOCC1",
    "Ki": "9.81 µM"
  },
  {
    "molecule": "COCCN1CCC(C(=O)NO)(S(=O)(=O)N2CCN(c3ccc(OCC(C)C)c(F)c3)CC2)CC1",
    "Ki": "> 10 µM"
  },
  {
    "molecule": "CCCCOc1ccc(N2CCN(S(=O)(=O)C3(C(=O)NO)CCS(=O)(=O)CC3)CC2)cc1",
    "Ki": "> 10 µM"
  }
]

Field Ki (entry O=C(NO)C1(S(=O)(=O)N2CCN(c3ccc(C(F)(F)F)cn3)CC2)CCOCC1 ) reads 0.767 µM

Field Ki (entry CCCCOc1ccc(N2CCN(S(=O)(=O)C3(C(=O)NO)CCN(C(=O)N(CC)CC)CC3)CC2)cc1 ) reads > 10 µM

Field Ki (entry CCCCOc1ccc(N2CCN(S(=O)(=O)C3(C(=O)NO)CCN4CCCC4C3)CC2)cc1F (stereo not shown) ) reads > 10 µM

Field Ki (entry CCCc1nnc(N2CCN(S(=O)(=O)C3(C(=O)NO)CCOCC3)CC2)s1 ) reads > 10 µM

Field Ki (entry O=C(NO)C1(S(=O)(=O)N2CCN(c3cnc(CCCC(F)(F)F)cn3)CC2)CCOCC1 ) reads > 10 µM
